# PROTOCOL DETAILS: NCI Yeast Anticancer Drug Screen. Data for the cln2 rad14 strain (AID 165)
# APPLIED CONDITIONS: S. cerevisiae cln2 rad14 strain, at 50.0 µM (retest, dose inferred, filed as 5.0)
This is part of a sample that, as a whole, favours compounds with a hit. Of some 79,000 tested, about 15% had one in any assay. The source made the active and inactive calls. Cut-off read from the data, not from the text of the source: active = growth inhibition above about 70%; inactive = the rest.
Respond with a class label; see yes (active), no (inactive)

Worked examples, 4 molecules total:
| MOLECULE | CAT |
| --- | --- |
| C1=C(c2ccccc2)CCc2c1ccc1ccccc21 | no |
| CC(C)C(=O)/C=C/c1ccc(Cl)cc1Cl | no |
| O=C(O)/C=C/C(=O)c1ccc(O)cc1 | yes |
| Nc1ccc2nc(Nc3ccc(F)cc3)cnc2c1 | no |

Q. Outcome logged for "COC(OC)(c1ccccc1)C(Br)Br" in this assay:
A. no

Q. Hi, do you know how "CC(=O)OCc1c2ccccc2c(C)c2c1cc(F)c1ccccc12" came out in this test?
A. yes

Q. For this molecule, state the assay outcome: O=C(OCc1ccccc1)C(O)c1ccccc1 (configuration not stated)
A. no

Q. Just curious, what result did N#CC1(C#N)C2C=CC(c3coc4cccc2c34)C1(C#N)C#N (configuration not stated) get here?
A. no

Cited source: PubChem BioAssay (NCI)
